Target: RNR (RNR1:RNR2 1:1) (Homo sapiens, UniProt P23921+P31350)
Sequence (P23921 whole entry): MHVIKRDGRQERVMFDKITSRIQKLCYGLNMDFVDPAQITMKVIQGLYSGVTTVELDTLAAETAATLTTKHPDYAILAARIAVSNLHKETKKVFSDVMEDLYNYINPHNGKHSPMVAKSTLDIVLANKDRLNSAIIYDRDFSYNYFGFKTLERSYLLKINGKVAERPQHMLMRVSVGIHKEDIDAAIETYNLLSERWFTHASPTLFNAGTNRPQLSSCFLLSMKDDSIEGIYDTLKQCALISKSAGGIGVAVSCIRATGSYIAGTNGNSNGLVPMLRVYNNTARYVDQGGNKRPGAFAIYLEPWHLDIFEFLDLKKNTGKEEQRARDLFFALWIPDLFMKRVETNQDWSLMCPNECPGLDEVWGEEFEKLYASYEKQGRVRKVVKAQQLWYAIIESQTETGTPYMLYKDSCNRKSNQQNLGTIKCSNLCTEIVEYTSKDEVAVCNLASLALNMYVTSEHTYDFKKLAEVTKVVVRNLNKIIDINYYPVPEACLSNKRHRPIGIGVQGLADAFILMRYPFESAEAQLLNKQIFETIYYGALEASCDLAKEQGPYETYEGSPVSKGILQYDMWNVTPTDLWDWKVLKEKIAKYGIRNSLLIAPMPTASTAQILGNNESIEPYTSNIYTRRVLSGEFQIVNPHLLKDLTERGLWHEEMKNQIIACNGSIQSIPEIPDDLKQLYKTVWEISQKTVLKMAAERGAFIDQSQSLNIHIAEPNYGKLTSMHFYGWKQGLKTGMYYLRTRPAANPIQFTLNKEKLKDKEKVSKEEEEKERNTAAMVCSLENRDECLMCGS
Sequence (P31350 whole entry): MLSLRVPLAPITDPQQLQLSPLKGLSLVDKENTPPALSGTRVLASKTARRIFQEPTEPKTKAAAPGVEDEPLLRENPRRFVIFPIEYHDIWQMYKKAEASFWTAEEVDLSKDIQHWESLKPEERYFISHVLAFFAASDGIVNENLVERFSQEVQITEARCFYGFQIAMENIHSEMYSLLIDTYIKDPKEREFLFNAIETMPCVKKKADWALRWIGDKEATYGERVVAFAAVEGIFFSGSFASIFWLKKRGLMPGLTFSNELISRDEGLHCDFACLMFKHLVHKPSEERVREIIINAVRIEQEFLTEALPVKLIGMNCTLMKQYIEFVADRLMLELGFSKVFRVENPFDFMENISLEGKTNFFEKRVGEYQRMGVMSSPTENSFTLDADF
Experiment: RNR enzyme activity, rapid-fire mass spectrometry (RF/MS) assay
Details: RNR 50 nM, 1:1 (RNR1:RNR2); CDP 5 μM; ATP 1 mM; 37° C., 45 min; compounds screened up to 50 μM
pIC50: −log10 of the molar value.
EXPERIMENTAL_ENDPOINT: pIC50

Record excerpt, results attached:
>>> reading("CN(c1ccc(O)cc1)C1CN(S(=O)(=O)c2cc3[nH]cc(Cl)c3cc2F)C1")
"≥ 7.30"
>>> reading("O=S(=O)(c1ccc2cc[nH]c2c1)N1CC2CC1CN2c1ccc(O)cc1 (stereo not shown)")
"6.30 to 7.00"
>>> reading("C[C@@H]1CN(c2ccc(O)cc2)CCN1S(=O)(=O)c1ccc2cc[nH]c2c1")
"≥ 7.30"
>>> reading("O=S(=O)(c1ccc2cc[nH]c2c1)N1CC(Nc2ccc(O)cc2)C1")
"≥ 7.30"
>>> reading("CN(c1ccc(O)cc1)C1CN(S(=O)(=O)c2ccc3cn[nH]c3c2)C1")
"6.30 to 7.00"

What does the record list as pIC50 for C[C@@H]1[C@H](Nc2ccc(O)cc2)CN1S(=O)(=O)c1ccc2cc[nH]c2c1 (racemic) ?
6.30 to 7.00

CN(c1ccc(O)cc1)C1CN(S(=O)(=O)c2cccc3[nH]ccc23)C1 , same question.
7.00 to 7.30
